protection from cytokine-induced ATP loss: recorded values
- Experimental details: preservation of ATP in cytokine-treated beta cells – cell-based, ATP luminescence, single point, primary screen (AID 488910)
- Condition context: INS-1E cytokine-induced death, 48 h, at 10 µM, active compounds read high, normalised: neutral wells 0, positive control 100
About 25 (0.1%) of roughly 20,000 compounds were called active. The list comes from a sample in which actives are over-represented; it also holds close analogues and randomly drawn compounds.
Parameter measured: protection from cytokine-induced ATP loss (%)

{"Smiles code": "CC(C)NC(=O)N(C)C[C@@H]1Oc2c(cccc2N(C)C)C(=O)N([C@@H](C)CO)C[C@H]1C", "Units label": "%", "Recorded value": 10.2}
{"Smiles code": "COc1cc(Br)cc(/C=N/NC(=O)c2ccccn2)c1O", "Units label": "%", "Recorded value": -83.9}
{"Smiles code": "C[C@@H]1CN([C@H](C)CO)C(=O)Cc2cc(NC(=O)Nc3cccc4ccccc34)ccc2O[C@@H]1CN(C)Cc1ccc(C(F)(F)F)cc1", "Units label": "%", "Recorded value": -18.8}
{"Smiles code": "COc1ccc(NC(=O)N(C)C[C@@H]2Oc3ccc(NC(=O)Nc4ccccc4)cc3CC(=O)N([C@H](C)CO)C[C@@H]2C)cc1", "Units label": "%", "Recorded value": 9.6}
{"Smiles code": "O=C(NO)c1cccc(C(=O)N/N=C/c2c(F)c(F)c(F)c(F)c2F)c1", "Units label": "%", "Recorded value": -2.52}
{"Smiles code": "COc1cc(/C=C/C=N/NC(=O)CCCCCC(=O)Nc2ccccc2O)ccc1O", "Units label": "%", "Recorded value": -1.89}
{"Smiles code": "C[C@@H]1CN([C@H](C)CO)C(=O)Cc2cc(NC(=O)C3CCCCC3)ccc2O[C@@H]1CN(C)Cc1ccc(C(F)(F)F)cc1", "Units label": "%", "Recorded value": -23.1}
{"Smiles code": "C[C@H]1CN([C@@H](C)CO)C(=O)c2cccc(NC(=O)c3ccncc3)c2O[C@@H]1CN(C)C", "Units label": "%", "Recorded value": 7.37}

Hey, just so you know, these numbers are from PubChem BioAssay AID488910.
